Ref: patent US20210002231A1

Assignment: determine reported Emax for the given compounds.
- Test system: UniProt:Q9GZQ6
- Test: [35S]-GTPγS binding assay
- Assay type: biochemical
- Parameters: expressed in transfected cells
- Particulars: relative to RFRP3
- Description: Stimulation by endogenous RF-amide peptides or test compounds for [^35S]-GTPγS binding to membranes from CHO cells expressing human NPFF1R or NPFF2R, were examined as reported. 1.6. […] The cAMP responses were measured in presence of D-luciferin (1 mM).
Starred links: 1 amine or outer side, 2 acyl side, 3 side chain; linkers in the order of their positions; H or OH if unused. Non-standard residues stand in square brackets, D forms with d. Residues, ends and D or L forms follow the SMILES beside them. *: point of attachment. X1 = O=C1[C@@H](N[*:1])Cc2ccccc2CN1CCC(=O)[*:2]; Dmt = Cc1cc(O)cc(C)c1C[C@H](N)C(=O)O; X4 = c1ccc2sc(*)nc2c1

Exercise: I'd like to know its Emax. The compound in question is Cc1cc(O)cc(C)c1C[C@H](N)C(=O)N[C@H](CCCNC(=N)N)C(=O)N[C@H]1Cc2ccccc2CN(CCC(=O)N[C@@H](CCCCNc2nc3ccccc3s2)C(=O)N[C@@H](Cc2ccccc2)C(N)=O)C1=O [KGFF16, H-Dmt-D-Arg-Aba-β-Ala-Lys(Bth)-Phe-NH2] (H-[Dmt][dR][X1]K(X4)F-NH2)
Solution: 51%

Exercise: I'd like to know its Emax. The compound in question is Cc1cc(O)cc(C)c1C[C@H](N)C(=O)N[C@H](CCCNC(=N)N)C(=O)N[C@H]1Cc2ccccc2CNC1=O [KGFF12, H-Dmt-D-Arg-Aba-NH]
Solution: 13%

Exercise: I'd like to know its Emax. The compound in question is Cc1cc(O)cc(C)c1C[C@H](N)C(=O)N[C@H](CCCNC(=N)N)C(=O)N[C@H]1Cc2ccccc2CN(CC(=O)N[C@@H](CCCNC(=N)N)C(=O)N[C@@H](Cc2ccccc2)C(N)=O)C1=O [KGFF01, H-Dmt-D-Arg-Aba-Gly-Arg-Phe-NH2]
Solution: 44%

Exercise: I'd like to know its Emax. The compound in question is Cc1cc(O)cc(C)c1C[C@H](N)C(=O)N[C@H](CCCNC(=N)N)C(=O)N[C@H]1Cc2ccccc2CN(CC(=O)N[C@@H](CCCN)C(=O)N[C@@H](Cc2ccccc2)C(N)=O)C1=O [KGFF04, H-Dmt-D-Arg-Aba-Gly-Orn-Phe-NH2]
Solution: 25%

* * *

Starred links: 1 amine or outer side, 2 acyl side, 3 side chain; linkers in the order of their positions; H or OH if unused. Non-standard residues stand in square brackets, D forms with d. Residues, ends and D or L forms follow the SMILES beside them. *: point of attachment. X1 = O=C1[C@@H](N[*:1])Cc2ccccc2CN1CCC(=O)[*:2]; Dmt = Cc1cc(O)cc(C)c1C[C@H](N)C(=O)O; X3 = c1ccc2oc(*)nc2c1
Consider the following Ki values measured on human NPFF1R (Homo sapiens, UniProt Q9GZQ6).
Sequence (Q9GZQ6 whole entry): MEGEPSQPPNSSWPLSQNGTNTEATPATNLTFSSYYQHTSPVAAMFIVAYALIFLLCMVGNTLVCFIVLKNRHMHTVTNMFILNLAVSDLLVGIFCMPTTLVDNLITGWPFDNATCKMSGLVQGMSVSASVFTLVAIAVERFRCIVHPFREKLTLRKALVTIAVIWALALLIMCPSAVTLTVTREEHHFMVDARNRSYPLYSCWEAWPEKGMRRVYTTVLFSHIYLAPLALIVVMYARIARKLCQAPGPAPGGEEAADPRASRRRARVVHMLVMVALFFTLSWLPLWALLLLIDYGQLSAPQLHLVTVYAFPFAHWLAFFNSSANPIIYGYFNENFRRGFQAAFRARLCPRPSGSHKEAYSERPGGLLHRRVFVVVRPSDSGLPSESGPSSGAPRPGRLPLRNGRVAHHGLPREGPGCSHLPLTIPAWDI
Express the result in nM but write the number alone.

Exercise: I'd like to know its Ki. The compound in question is Cc1cc(O)cc(C)c1C[C@H](N)C(=O)N[C@H](CCCNC(=N)N)C(=O)N[C@H]1Cc2ccccc2CN(CC(=O)N[C@@H](CCCN)C(=O)N[C@@H](Cc2ccccc2)C(N)=O)C1=O
Solution: 780

Exercise: I'd like to know its Ki. The compound in question is Cc1cc(O)cc(C)c1C[C@H](N)C(=O)N[C@@H](CCCN1CCC(Cc2ccccc2)CC1)C(=O)N[C@@H](Cc1ccccc1)C(N)=O
Solution: 2720

Exercise: I'd like to know its Ki. The compound in question is Cc1cc(O)cc(C)c1C[C@H](N)C(=O)N[C@H](CCCNC(=N)N)C(=O)N[C@@H](Cc1ccccc1)C(=O)N[C@@H](CCCN)C(=O)N[C@@H](Cc1ccccc1)C(N)=O [KGFF05, H-Dmt-D-Arg-Phe-Orn-Phe-NH2] (HELM PEPTIDE1{[Cc1cc(O)cc(C)c1C[C@H](N)C(=O)[*:2]].[dR].F.[Orn].F.[am]}$$$$V2.0)
Solution: 3100

Exercise: I'd like to know its Ki. The compound in question is Cc1cc(O)cc(C)c1C[C@H](N)C(=O)N[C@H](CCCNC(=N)N)C(=O)N[C@H]1Cc2ccccc2CN(CCC(=O)N[C@@H](CCCCNc2nc3ccccc3o2)C(=O)N[C@@H](Cc2ccccc2)C(N)=O)C1=O [KGFF15, H-Dmt-D-Arg-Aba-β-Ala-Lys(Box)-Phe-NH2] (H-[Dmt][dR][X1]K(X3)F-NH2)
Solution: 88

* * *

- Test system: human MOPr (Homo sapiens, UniProt P35372)
- Sequence (P35372 whole entry): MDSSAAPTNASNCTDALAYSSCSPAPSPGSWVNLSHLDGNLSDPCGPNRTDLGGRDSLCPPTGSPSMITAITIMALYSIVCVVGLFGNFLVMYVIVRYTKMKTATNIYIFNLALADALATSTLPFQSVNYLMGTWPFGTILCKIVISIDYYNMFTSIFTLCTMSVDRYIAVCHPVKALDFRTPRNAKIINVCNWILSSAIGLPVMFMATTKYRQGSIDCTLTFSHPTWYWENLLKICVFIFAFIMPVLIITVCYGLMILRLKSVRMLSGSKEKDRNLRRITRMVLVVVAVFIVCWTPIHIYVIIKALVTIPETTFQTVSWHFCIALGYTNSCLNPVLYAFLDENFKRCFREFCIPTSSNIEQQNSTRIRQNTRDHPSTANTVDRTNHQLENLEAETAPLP
- Test: BRET1 β-arrestin-2 recruitment assay
- Type: cell-based
- Set-up: expressed in transfected cells; host or cells: HEK293 cells stably expressing eYFP-β-arrestin-2, transiently transfected with the Rluc8-MOP plasmid
- Particulars: Table 3B; — = non-detectable recruitment; read-out: MOPr (β-arrestin-2) EC50
Starred links: 1 amine or outer side, 2 acyl side, 3 side chain; linkers in the order of their positions; H or OH if unused. Non-standard residues stand in square brackets, D forms with d. Residues, ends and D or L forms follow the SMILES beside them. Nva(5-(4-Bn-piperidin-1-yl)) = N[C@@H](CCCN1CCC(Cc2ccccc2)CC1)C(=O)O; X5 = O=C1[C@@H](N[*:1])Cc2ccccc2CN1CCCC(=O)[*:2]; Dmt = Cc1cc(O)cc(C)c1C[C@H](N)C(=O)O
Endpoint: pEC50
# pEC50: negative log10 of molar concentration; output just the value

Exercise: I'd like to know its pEC50. The compound in question is Cc1cc(O)cc(C)c1C[C@H](N)C(=O)N[C@H](CCCNC(=N)N)C(=O)N[C@H]1Cc2ccccc2CN(CCCC(=O)N[C@@H](CCCN2CCC(Cc3ccccc3)CC2)C(=O)N[C@@H](Cc2c[nH]c3ccccc23)C(N)=O)C1=O [DP0022, H-Dmt-D-Arg-AbaGABA-Bpa-Trp-NH2] (H-[Dmt][dR][X5][Nva(5-(4-Bn-piperidin-1-yl))]W-NH2)
Solution: 6.21

Exercise: I'd like to know its pEC50. The compound in question is Cc1cc(O)cc(C)c1C[C@H](N)C(=O)N[C@H](CCCNC(=N)N)C(=O)N[C@H]1Cc2ccccc2CN(CCCC(=O)N[C@@H](CCCN2CCC(Cc3ccccc3)CC2)C(=O)N[C@@H](Cc2ccccc2)C(N)=O)C1=O [DP0018, H-Dmt-D-Arg-AbaGABA-Bpa-Phe-NH2] (H-[Dmt][dR][X5][Nva(5-(4-Bn-piperidin-1-yl))]F-NH2)
Solution: 7.02

Exercise: I'd like to know its pEC50. The compound in question is Cc1cc(O)cc(C)c1C[C@H](N)C(=O)N[C@H](CCCNC(=N)N)C(=O)N[C@H]1Cc2c(ccc3ccccc23)CN(CC(=O)N[C@@H](CCCN2CCC(Cc3ccccc3)CC2)C(=O)N[C@@H](Cc2ccccc2)C(N)=O)C1=O
Solution: 6.19

* * *

- Test system: human MOPr (Homo sapiens)
- Test: cell-based
- Assay type: cell-based
- Parameters: expressed in transfected cells; HEK293-Glo20F cells (cAMP)
- Particulars: Table 3a; HEK293-Glo20F-hMOPr cells; read-out: MOPr (cAMP) EC50
Starred links: 1 amine or outer side, 2 acyl side, 3 side chain; linkers in the order of their positions; H or OH if unused. Non-standard residues stand in square brackets, D forms with d. Residues, ends and D or L forms follow the SMILES beside them. *: point of attachment. X1 = O=C1[C@@H](N[*:1])Cc2ccccc2CN1CCC(=O)[*:2]; Dmt = Cc1cc(O)cc(C)c1C[C@H](N)C(=O)O; X4 = c1ccc2sc(*)nc2c1
Endpoint: EC50 (nM)
Express the result in nM but write the number alone.

Exercise: I'd like to know its EC50. The compound in question is Cc1cc(O)cc(C)c1C[C@H](N)C(=O)N[C@H](CCCNC(=N)N)C(=O)N[C@H]1Cc2ccccc2CN(CCC(=O)N[C@@H](CCCN2CCC(Cc3ccccc3)CC2)C(=O)N[C@@H](Cc2ccccc2)C(N)=O)C1=O [KGFF09, H-Dmt-D-Arg-Aba-β-Ala-Bpa-Phe-NH2]
Solution: 18.2

Exercise: I'd like to know its EC50. The compound in question is Cc1cc(O)cc(C)c1C[C@H](N)C(=O)N[C@H](CCCNC(=N)N)C(=O)N[C@H]1Cc2ccccc2CN(CCC(=O)N[C@@H](CCCN2CCCCC2)C(=O)N[C@@H](Cc2ccccc2)C(N)=O)C1=O [KGFF08, H-Dmt-D-Arg-Aba-β-Ala-Apa-Phe-NH2]
Solution: 9.9

Exercise: I'd like to know its EC50. The compound in question is Cc1cc(O)cc(C)c1C[C@H](N)C(=O)N[C@@H](CCCN1CCCCC1)C(=O)N[C@@H](Cc1ccccc1)C(N)=O [KGFF10, H-Dmt-Apa-Phe-NH2]
Solution: 598

Exercise: I'd like to know its EC50. The compound in question is Cc1cc(O)cc(C)c1C[C@H](N)C(=O)N[C@H](CCCNC(=N)N)C(=O)N[C@H]1Cc2ccccc2CN(CCC(=O)N[C@@H](CCCCNc2nc3ccccc3s2)C(=O)N[C@@H](Cc2ccccc2)C(N)=O)C1=O [KGFF16, H-Dmt-D-Arg-Aba-β-Ala-Lys(Bth)-Phe-NH2] (H-[Dmt][dR][X1]K(X4)F-NH2)
Solution: 6.2
